test: Plasma pharmacokinetics (validated HPLC/MS, noncompartmental analysis); format: in vivo, human; settings: human, plasma, oral, 90 mg/day, Day 1 of cycle 1, 90 mg/day, mean (SD), two patients excluded; read-out: AUC24h
observation type: AUC(0-t) (ng·h/mL)
Respond with the bare value in ng·h/mL.

Exam item: # AUC(0-t) lookup, item `CC1(C)CCC2(CC1)N[C@@H](C(=O)N[C@@H]1CC[C@@H](C(N)=O)OC1)[C@H](c1ccnc(Cl)c1F)[C@]21C(=O)Nc2cc(Cl)ccc21`
Marked response: 8640

---

assay: Plasma pharmacokinetics (validated HPLC/MS, noncompartmental analysis); assay type: in vivo, human; conditions: human, plasma, oral, 120 mg/day, Day 1 of cycle 1, 120 mg/day, mean (SD); read-out: AUC8h
observation type: AUC(0-t) (ng·h/mL)
Respond with the bare value in ng·h/mL.

Exam item: # AUC(0-t) lookup, item `CC1(C)CCC2(CC1)N[C@@H](C(=O)N[C@@H]1CC[C@@H](C(N)=O)OC1)[C@H](c1ccnc(Cl)c1F)[C@]21C(=O)Nc2cc(Cl)ccc21`
Marked response: 4940

---

Assay: Plasma pharmacokinetics (validated HPLC/MS, noncompartmental analysis)
Assay type: in vivo, human
Settings: human, plasma, oral, 160 mg/day, Day 1 of cycle 1, 160 mg/day, mean (SD); read-out: AUClast
Description: Milademetan concentrations were determined using a validated HPLC/MS method. The lower limit of quantification was 0.500 ng/mL. Noncompartmental analysis was used to calculate the PK parameters from milademetan plasma concentrations. In addition, the Phoenix WinNonlin 8.1 software (Certara, Princeton, NJ, USA) was used for PK analysis. […] The best response was measured as CR, CRh, CRi, or PR. […]
observation type: AUC(0-t)
Give me the value, and tack the unit on after it.

Exam item: # AUC(0-t) lookup, item `CC1(C)CCC2(CC1)N[C@@H](C(=O)N[C@@H]1CC[C@@H](C(N)=O)OC1)[C@H](c1ccnc(Cl)c1F)[C@]21C(=O)Nc2cc(Cl)ccc21`
Marked response: 14900 ng·h/mL

---

assay: Plasma pharmacokinetics (validated HPLC/MS, noncompartmental analysis); assay type: in vivo, human; conditions: human, plasma, oral, 120 mg/day, Day 1 of cycle 1, 120 mg/day, mean (SD), one patient excluded; read-out: AUC24h
observation type: AUC(0-t) (ng·h/mL)
Respond with the bare value in ng·h/mL.

Exam item: # AUC(0-t) lookup, item `CC1(C)CCC2(CC1)N[C@@H](C(=O)N[C@@H]1CC[C@@H](C(N)=O)OC1)[C@H](c1ccnc(Cl)c1F)[C@]21C(=O)Nc2cc(Cl)ccc21`
Marked response: 12100

---

assay: Plasma pharmacokinetics (validated HPLC/MS, noncompartmental analysis); type: in vivo, human; details: human, plasma, oral, 90 mg/day, Day 1 of cycle 1, 90 mg/day, median (minimum, maximum); read-out: Tmax
observation type: Tmax (h)
Respond with the bare value in h.

Exam item: # Tmax lookup, item `CC1(C)CCC2(CC1)N[C@@H](C(=O)N[C@@H]1CC[C@@H](C(N)=O)OC1)[C@H](c1ccnc(Cl)c1F)[C@]21C(=O)Nc2cc(Cl)ccc21`
Marked response: 4.45

---

assay: Plasma pharmacokinetics (validated HPLC/MS, noncompartmental analysis); assay type: in vivo, human; conditions: human, plasma, oral, 160 mg/day, Day 1 of cycle 1, 160 mg/day, mean (SD); read-out: AUC8h
observation type: AUC(0-t) (ng·h/mL)
Respond with the bare value in ng·h/mL.

Exam item: # AUC(0-t) lookup, item `CC1(C)CCC2(CC1)N[C@@H](C(=O)N[C@@H]1CC[C@@H](C(N)=O)OC1)[C@H](c1ccnc(Cl)c1F)[C@]21C(=O)Nc2cc(Cl)ccc21`
Marked response: 6560
